target: T1, full length human PD-L1 (amino acids 1 to 290 of NP_054862.1) on transfected cells (human, UniProt Q9NZQ7 19-290); assay: FACS, 100 nM antibody
T1 construct: also called HEK293/hPD-L1; Raji/hPD-L1
T1 sequence (Q9NZQ7 19-290 limits assumed): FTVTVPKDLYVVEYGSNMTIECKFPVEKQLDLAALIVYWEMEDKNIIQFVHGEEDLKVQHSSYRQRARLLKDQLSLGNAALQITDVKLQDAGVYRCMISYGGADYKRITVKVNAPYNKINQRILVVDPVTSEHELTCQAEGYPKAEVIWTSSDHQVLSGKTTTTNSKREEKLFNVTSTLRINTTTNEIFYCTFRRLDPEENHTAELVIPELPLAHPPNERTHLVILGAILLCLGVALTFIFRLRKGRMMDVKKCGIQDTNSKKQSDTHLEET
# strict inequality: Ratio of HEK293/hPD-L1 to HEK293 parental cells < 100 yields T, everything else yields F

binder	group-label
H1H9329P (antibody, V domains shown, human IgG1 Fc (H1H prefix)) VH: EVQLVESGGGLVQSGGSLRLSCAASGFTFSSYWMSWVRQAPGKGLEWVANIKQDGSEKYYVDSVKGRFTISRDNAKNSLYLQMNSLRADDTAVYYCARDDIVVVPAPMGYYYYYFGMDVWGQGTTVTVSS VL: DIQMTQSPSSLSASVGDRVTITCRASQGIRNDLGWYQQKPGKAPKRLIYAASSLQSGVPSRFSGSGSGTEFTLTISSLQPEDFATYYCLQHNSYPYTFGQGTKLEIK	F
H2aM8323N (antibody, V domains shown, human variable regions, mouse IgG2 Fc (H2aM prefix); also called H2M8323N) VH: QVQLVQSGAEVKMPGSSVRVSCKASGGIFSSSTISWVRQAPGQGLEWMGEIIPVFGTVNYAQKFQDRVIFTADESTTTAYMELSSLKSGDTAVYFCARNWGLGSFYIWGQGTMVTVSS VL: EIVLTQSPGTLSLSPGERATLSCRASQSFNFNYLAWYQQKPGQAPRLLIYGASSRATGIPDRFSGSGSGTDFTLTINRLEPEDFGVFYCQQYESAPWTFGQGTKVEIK	T
H1H9336P (antibody, V domains shown, human IgG1 Fc (H1H prefix)) VH: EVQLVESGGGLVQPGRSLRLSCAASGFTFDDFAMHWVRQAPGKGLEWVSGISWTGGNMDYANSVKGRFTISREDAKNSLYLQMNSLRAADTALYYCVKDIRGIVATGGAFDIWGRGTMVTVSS VL: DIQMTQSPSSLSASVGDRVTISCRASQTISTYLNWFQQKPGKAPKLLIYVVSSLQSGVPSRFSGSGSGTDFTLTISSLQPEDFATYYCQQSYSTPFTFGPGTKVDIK	F
H2aM8310N (antibody, V domains shown, human variable regions, mouse IgG2 Fc (H2aM prefix); also called H2M8310N) VH: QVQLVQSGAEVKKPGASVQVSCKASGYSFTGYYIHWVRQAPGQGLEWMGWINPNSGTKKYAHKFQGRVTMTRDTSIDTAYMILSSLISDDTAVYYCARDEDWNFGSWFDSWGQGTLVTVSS VL: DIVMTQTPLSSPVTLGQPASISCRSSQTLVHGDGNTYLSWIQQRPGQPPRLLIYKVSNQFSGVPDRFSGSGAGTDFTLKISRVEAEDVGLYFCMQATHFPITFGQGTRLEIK	T
H2aM8314N (antibody, V domains shown, human variable regions, mouse IgG2 Fc (H2aM prefix); also called H2M8314N) VH: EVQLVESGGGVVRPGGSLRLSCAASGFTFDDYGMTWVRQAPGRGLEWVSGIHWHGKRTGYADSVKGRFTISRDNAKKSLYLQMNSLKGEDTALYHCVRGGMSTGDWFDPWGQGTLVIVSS VL: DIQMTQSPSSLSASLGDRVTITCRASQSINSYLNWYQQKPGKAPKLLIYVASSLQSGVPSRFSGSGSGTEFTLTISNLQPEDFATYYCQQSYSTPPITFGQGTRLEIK	T
H2aM8317N (antibody, V domains shown, human variable regions, mouse IgG2 Fc (H2aM prefix); also called H2M8317N) VH: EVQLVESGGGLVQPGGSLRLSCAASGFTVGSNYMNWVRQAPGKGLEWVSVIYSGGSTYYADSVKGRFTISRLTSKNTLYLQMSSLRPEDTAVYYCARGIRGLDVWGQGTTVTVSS VL: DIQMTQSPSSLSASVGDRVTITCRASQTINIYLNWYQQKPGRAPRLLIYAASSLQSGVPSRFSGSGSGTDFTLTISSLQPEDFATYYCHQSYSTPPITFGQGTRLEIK	T
H2aM8321N (antibody, V domains shown, human variable regions, mouse IgG2 Fc (H2aM prefix); also called H2M8321N) VH: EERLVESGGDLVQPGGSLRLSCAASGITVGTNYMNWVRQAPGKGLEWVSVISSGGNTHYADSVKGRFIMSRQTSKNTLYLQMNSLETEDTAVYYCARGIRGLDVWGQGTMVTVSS VL: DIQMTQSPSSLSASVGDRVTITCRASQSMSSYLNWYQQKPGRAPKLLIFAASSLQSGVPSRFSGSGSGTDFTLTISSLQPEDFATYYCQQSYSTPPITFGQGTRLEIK	T

All values here come from patent US20210380702A1.
